target: Sodium channel protein type 2 subunit alpha (Homo sapiens); test: Inhibition of human Nav1.2 expressed in HEK293 cells assessed as change in membrane potential at 10 uM by patch clamp technique; assay type: cell-based
REPORTED_PROPERTY: inhibition (%)
State just the number; it will be interpreted in %.

Prompt line: Param item = CN1CCN(c2ncc(-c3cc(Cl)cc(Cl)c3Cl)c(N)n2)CC1 [SIPATRIGINE] ; retrieve measured inhibition.
Response line: 21.6

Prompt line: Now consider NCc1noc(-c2c3ccccc3nn2Cc2ccccc2)n1 .
Response line: 13

Prompt line: Now consider NCc1noc(-c2nn(Cc3ccccc3)c3ccccc23)n1 .
Response line: 6.6

Prompt line: Now consider Nc1nc(N)c(-c2cc(Cl)cc(Cl)c2Cl)c(CF)n1 .
Response line: 0.7
